System: ARPE-19
Assay: Neuroprotective activity against Fenton reagent-induced ROS generation-stimulated cytotoxicity in human ARPE19 cells assessed as cell viability at 1 mM after 2 hrs by MTS assay
Type: functional, cell-based
Active and inactive are the calls of the source. The rule behind the calls is not given here.
Outcomes: t = active, f = inactive

| SMILES_ENTRY | TEST_SYSTEM | CLASSIFICATION |
| --- | --- | --- |
| COc1nc(N2C(=O)CCCC2=O)nc(OC)c1O | ARPE-19 | t |
| O=C1CCCC(=O)N1c1ncc(O)cn1 | ARPE-19 | t |
| O=C1CCC(=O)N1c1ncccn1 | ARPE-19 | t |
| Oc1cnc(N2CCCCC2)nc1 | ARPE-19 | t |
| CN(C)S(=O)(=O)N1CC(=O)N(c2ncc(O)cn2)C(=O)C1 | ARPE-19 | t |
| COc1nc(N2CCCCC2)nc(OC)c1O | ARPE-19 | t |
| COc1nc(N2C(=O)CCC2=O)nc(OC)c1O | ARPE-19 | t |
| Oc1c(I)cc(Cl)c2cccnc12 | ARPE-19 | t |
| COc1cc(OC)nc(N2CCCC2)n1 | ARPE-19 | f |
| COc1cc(OC)nc(N2C(=O)CCC2=O)n1 | ARPE-19 | t |
| COc1nc(N2CCCC2)nc(OC)c1O | ARPE-19 | t |
| c1cnc(N2CCCCC2)nc1 | ARPE-19 | f |
| COc1cc(OC)nc(N2CCCCC2)n1 | ARPE-19 | f |
| O=C1CCCC(=O)N1c1ncccn1 | ARPE-19 | t |

* * *

Experiment: Metal chelating activity assessed as stoichiometric ratio of compound to Mg2+ ion at 0.1 to 0.5 mM of compound and metal ion mixture after 45 mins by spectrophotometric analysis
Assay type: physicochemical
Conditions: 0.75 h, 500 µM

| SMILES_ENTRY | Ratio |
| --- | --- |
| O=C1CCCC(=O)N1c1ncc(O)cn1 | 0 |
| COc1cc(OC)nc(N2C(=O)CCCC2=O)n1 | 0 |
| O=C1CCCC(=O)N1c1ncccn1 | 0 |
| O=C1CCC(=O)N1c1ncc(O)cn1 | 0 |
| COc1cc(OC)nc(N2C(=O)CCC2=O)n1 | 0 |
| COc1nc(N2C(=O)CCC2=O)nc(OC)c1O | 0 |
| COc1nc(N2C(=O)CCCC2=O)nc(OC)c1O | 0 |
| O=C1CCC(=O)N1c1ncccn1 | 0 |

* * *

Test system: Brain
Assay: Drug uptake in brain of C57BL/6 mouse assessed per mg of protein at 80 mg/kg, po administered everyday for 14 days by HPLC-MS analysis
Assay type: ADME, organism-based
Settings: in vivo, 336 h

| SMILES_ENTRY | Drug uptake |
| --- | --- |
| COc1nc(N2C(=O)CN(S(=O)(=O)N(C)C)CC2=O)nc(OC)c1O | 4 ng/mg |
| CN(C)S(=O)(=O)N1CC(=O)N(c2ncc(O)cn2)C(=O)C1 | 3 ng/mg |

* * *

Experiment: Metal chelating activity assessed as stoichiometric ratio of compound to Fe2+ ion at 0.1 to 0.5 mM of compound and metal ion mixture after 45 mins by spectrophotometric analysis
Format: physicochemical
Conditions: 0.75 h, 500 µM
Label yes when Ratio < 2; otherwise no.

| SMILES_ENTRY | CLASSIFICATION |
| --- | --- |
| O=C1CCC(=O)N1c1ncccn1 | no |
| O=C1CCCC(=O)N1c1ncccn1 | no |
| O=C1CCC(=O)N1c1ncc(O)cn1 | no |
| O=C1CCCC(=O)N1c1ncc(O)cn1 | yes |

* * *

Assay: Metal chelating activity assessed as stoichiometric ratio of compound to Mn2+ ion at 0.1 to 0.5 mM of compound and metal ion mixture after 45 mins by spectrophotometric analysis
Type: physicochemical
Conditions: 0.75 h, 500 µM
Known Ratio of a selection of compounds
READOUT: Ratio

| SMILES_ENTRY | OBSERVED_MEASUREMENT |
| --- | --- |
| O=C1CCCC(=O)N1c1ncc(O)cn1 | 1.91 |
| O=C1CCC(=O)N1c1ncccn1 | 1.98 |
| COc1nc(N2C(=O)CCC2=O)nc(OC)c1O | 2.22 |
| COc1nc(N2C(=O)CCCC2=O)nc(OC)c1O | 2.12 |
| O=C1CCCC(=O)N1c1ncccn1 | 1.83 |
| COc1cc(OC)nc(N2C(=O)CCCC2=O)n1 | 1.95 |
| COc1cc(OC)nc(N2C(=O)CCC2=O)n1 | 2.04 |
| O=C1CCC(=O)N1c1ncc(O)cn1 | 2.14 |

* * *

Assay: Metal chelating activity assessed as stoichiometric ratio of compound to Cu2+ ion at 0.1 to 0.5 mM of compound and metal ion mixture after 45 mins by spectrophotometric analysis
Assay type: physicochemical
Details: 0.75 h, 500 µM
Known Ratio of a selection of compounds
READOUT: Ratio

| SMILES_ENTRY | OBSERVED_MEASUREMENT |
| --- | --- |
| COc1nc(N2C(=O)CCCC2=O)nc(OC)c1O | 1.86 |
| O=C1CCCC(=O)N1c1ncc(O)cn1 | 1.75 |
| COc1cc(OC)nc(N2C(=O)CCC2=O)n1 | 2.01 |
| O=C1CCC(=O)N1c1ncc(O)cn1 | 2.28 |
| O=C1CCC(=O)N1c1ncccn1 | 2.28 |
| O=C1CCCC(=O)N1c1ncccn1 | 2.01 |
| COc1nc(N2C(=O)CCC2=O)nc(OC)c1O | 2.13 |
| COc1cc(OC)nc(N2C(=O)CCCC2=O)n1 | 1.96 |

* * *

Tested on: SH-SY5Y
Assay: Neuroprotective activity against Fenton reagent-induced ROS generation-stimulated cytotoxicity in human SH-SY5Y cells assessed as cell viability at 1 mM after 2 hrs by MTS assay
Assay type: functional, cell-based
Active and inactive are the calls of the source. The calls are words filed in the database; no cut-off is given here.
Outcomes: YES (active), NO (inactive)

| SMILES_ENTRY | CLASSIFICATION |
| --- | --- |
| c1cnc(N2CCCCC2)nc1 | NO |
| COc1nc(N2C(=O)CCC2=O)nc(OC)c1O | YES |
| COc1cc(OC)nc(N2CCCCC2)n1 | NO |
| c1cnc(N2CCCC2)nc1 | NO |
| O=C1CCCC(=O)N1c1ncc(O)cn1 | YES |
| O=C1CCCC(=O)N1c1ncccn1 | YES |
| Oc1cnc(N2CCCC2)nc1 | YES |
| Oc1c(I)cc(Cl)c2cccnc12 | YES |
| COc1cc(OC)nc(N2CCCC2)n1 | NO |
| O=C1CCC(=O)N1c1ncc(O)cn1 | YES |
| Oc1cnc(N2CCCCC2)nc1 | YES |
| COc1nc(N2CCCCC2)nc(OC)c1O | YES |
| COc1nc(N2C(=O)CCCC2=O)nc(OC)c1O | YES |
| O=C1CCC(=O)N1c1ncccn1 | YES |
| COc1cc(OC)nc(N2C(=O)CCCC2=O)n1 | YES |

* * *

Assay: Metal chelating activity assessed as stoichiometric ratio of compound to Fe3+ ion at 0.1 to 0.5 mM of compound and metal ion mixture after 45 mins by spectrophotometric analysis
Type: physicochemical
Settings: 0.75 h, 500 µM
Known Ratio of a selection of compounds

| SMILES_ENTRY | Ratio |
| --- | --- |
| O=C1CCC(=O)N1c1ncc(O)cn1 | 2.01 |
| O=C1CCCC(=O)N1c1ncc(O)cn1 | 1.92 |
| COc1nc(N2C(=O)CCC2=O)nc(OC)c1O | 2.12 |
| COc1cc(OC)nc(N2C(=O)CCC2=O)n1 | 2.05 |
| O=C1CCCC(=O)N1c1ncccn1 | 1.8 |
| COc1cc(OC)nc(N2C(=O)CCCC2=O)n1 | 2.08 |
| COc1nc(N2C(=O)CCCC2=O)nc(OC)c1O | 1.82 |
| O=C1CCC(=O)N1c1ncccn1 | 2.01 |

* * *

Experiment: Metal chelating activity assessed as stoichiometric ratio of compound to Zn2+ ion at 0.1 to 0.5 mM of compound and metal ion mixture after 45 mins by spectrophotometric analysis
Format: physicochemical
Settings: 0.75 h, 500 µM

| SMILES_ENTRY | Ratio |
| --- | --- |
| COc1cc(OC)nc(N2C(=O)CCC2=O)n1 | 2.07 |
| O=C1CCCC(=O)N1c1ncc(O)cn1 | 1.99 |
| COc1nc(N2C(=O)CCCC2=O)nc(OC)c1O | 2.09 |
| O=C1CCC(=O)N1c1ncc(O)cn1 | 1.87 |
| O=C1CCCC(=O)N1c1ncccn1 | 2.17 |
| COc1cc(OC)nc(N2C(=O)CCCC2=O)n1 | 2.06 |
| O=C1CCC(=O)N1c1ncccn1 | 1.87 |
| COc1nc(N2C(=O)CCC2=O)nc(OC)c1O | 2.01 |
